Record form. Attribute: IC50. Fill in for each entry.
test system: HIV-13B; assay: Antiviral activity: inhibition of the cytopathic effect of HIV in MT4 cells (procedure of Pauwels et al.); format: cell-based; settings: Human immunodeficiency virus 1, MT4

Before answering, review these 2 worked examples.
{"COMPOUND": "Cc1cccc(COC(=O)N[C@H](C(=O)N[C@@H](Cc2ccccc2)C(=O)C(F)(F)[C@H](Cc2ccccc2)NC(=O)[C@@H](NC(=O)OCc2cccc(C)n2)C(C)C)C(C)C)n1", "IC50": "7 to 19 nM"}
{"COMPOUND": "CC(C)[C@H](NC(=O)OCc1ccccn1)C(=O)N[C@@H](Cc1ccccc1)C[C@H](O)[C@H](Cc1ccccc1)NC(=O)OCc1cncnc1", "IC50": "140 to 190 nM"}

As a next step, examine the compound that follows.
Identify measured IC50 corresponding to O=C(N[C@@H](Cc1ccccc1)C[C@H](O)[C@H](Cc1ccccc1)NC(=O)OCc1ccno1)OCc1ccno1 [Example 334B]
740 to 1600 nM

###

Experiment: Cell viability (LC50) in MT4 cells in the antiviral test
Type: cell-based
Conditions: human, concentration at which 50% of the cells remain viable
Description: The anti-HIV activity of the compounds of the invention can be determined in MT4 cells according to the procedure of Pauwels et. al. (J. Virol. Methods 1988, 20, 309).
Record form. Attribute: CC50. Fill in for each entry.
Numbers only, in µM.

{"MOLECULE": "O=C(N[C@@H](Cc1ccccc1)C[C@H](O)[C@H](Cc1ccccc1)NC(=O)OCc1ccno1)OCc1ccno1 [Example 334B]", "UNIT_TAG": "µM", "REPORTED_RESULT": 91}

Items follow; give CC50 for each.
1. CC(C)[C@H](NC(=O)OCc1ccc2ccccc2n1)C(=O)N[C@@H](Cc1ccccc1)C[C@H](O)[C@H](Cc1ccccc1)NC(=O)OCc1cccnc1
2. CC(C)[C@H](NC(=O)OCc1ccc2ccccc2n1)C(=O)N[C@@H](Cc1ccccc1)[C@@H](O)C[C@H](Cc1ccccc1)NC(=O)OCc1cccnc1
3. CC(C)[C@H](NC(=O)OCc1ccccn1)C(=O)N[C@@H](Cc1ccccc1)C[C@H](O)[C@H](Cc1ccccc1)NC(=O)OCc1cccnc1

84
27
64

###

Record form. Attribute: IC50. Fill in for each entry.
system: HIV-13B; assay: Antiviral activity: inhibition of the cytopathic effect of HIV in MT4 cells (procedure of Pauwels et al.); format: cell-based; conditions: Human immunodeficiency virus 1, MT4

Before answering, review these 2 worked examples.
{"COMPOUND_STRUCTURE_STRING": "O=C(N[C@@H](Cc1ccccc1)C[C@H](O)[C@H](Cc1ccccc1)NC(=O)OCc1cccnc1)OCc1cccnc1", "IC50": "140 to 230 nM"}
{"COMPOUND_STRUCTURE_STRING": "COc1ccc(CN(C)C(=O)N[C@H](C(=O)N[C@@H](Cc2ccccc2)[C@@H](O)C[C@H](Cc2ccccc2)NC(=O)OCc2cccnc2)C(C)C)cn1", "IC50": "58 to 67 nM"}

As a next step, examine the compound that follows.
Identify measured IC50 corresponding to COc1ccc(COC(=O)N[C@H](C(=O)N[C@@H](Cc2ccccc2)C[C@H](O)[C@H](Cc2ccccc2)NC(=O)OCc2cccnc2)C(C)C)cn1
13 to 25 nM

###

Record form. Attribute: IC50. Fill in for each entry.
System: HIV-13B
Test: Antiviral activity: inhibition of the cytopathic effect of HIV in MT4 cells (procedure of Pauwels et al.)
Assay type: cell-based
Conditions: Human immunodeficiency virus 1, MT4
Source text: The anti-HIV activity of the compounds of the invention can be determined in MT4 cells according to the procedure of Pauwels et. al. (J. Virol. Methods 1988, 20, 309).

{"MOLECULE": "CC[C@H](C)[C@H](NC(=O)N(C)Cc1ccccn1)C(=O)N[C@@H](Cc1ccccc1)C[C@H](O)[C@H](Cc1ccccc1)NC(=O)OCc1cccnc1 [Example 171]", "REPORTED_RESULT": "0.38 to 0.55 µM"}

Items follow; give IC50 for each.
1. Cc1cccc(COC(=O)N[C@H](C(=O)N[C@@H](Cc2ccccc2)[C@@H](O)C(F)(F)[C@H](Cc2ccccc2)NC(=O)[C@@H](NC(=O)OCc2cccc(C)n2)C(C)C)C(C)C)n1 [Example 305]
2. Cc1cccc(COC(=O)N[C@H](C(=O)N[C@@H](Cc2ccccc2)[C@@H](O)C[C@H](Cc2ccccc2)NC(=O)OCc2ccoc2)C(C)C)n1 [Example 322B]

1: 0.005 to 0.017 µM; 2: 0.086 to 0.094 µM

Identify measured IC50 corresponding to Cc1cnc(COC(=O)N[C@H](C(=O)N[C@@H](Cc2ccccc2)[C@@H](O)C[C@H](Cc2ccccc2)NC(=O)OCc2cccnc2)C(C)C)cn1 [Example 307]
0.16 to 0.26 µM
